Field: pIC50. System: UniProt P08684. Provenance: assorted publications.
Sequence (P08684 whole entry): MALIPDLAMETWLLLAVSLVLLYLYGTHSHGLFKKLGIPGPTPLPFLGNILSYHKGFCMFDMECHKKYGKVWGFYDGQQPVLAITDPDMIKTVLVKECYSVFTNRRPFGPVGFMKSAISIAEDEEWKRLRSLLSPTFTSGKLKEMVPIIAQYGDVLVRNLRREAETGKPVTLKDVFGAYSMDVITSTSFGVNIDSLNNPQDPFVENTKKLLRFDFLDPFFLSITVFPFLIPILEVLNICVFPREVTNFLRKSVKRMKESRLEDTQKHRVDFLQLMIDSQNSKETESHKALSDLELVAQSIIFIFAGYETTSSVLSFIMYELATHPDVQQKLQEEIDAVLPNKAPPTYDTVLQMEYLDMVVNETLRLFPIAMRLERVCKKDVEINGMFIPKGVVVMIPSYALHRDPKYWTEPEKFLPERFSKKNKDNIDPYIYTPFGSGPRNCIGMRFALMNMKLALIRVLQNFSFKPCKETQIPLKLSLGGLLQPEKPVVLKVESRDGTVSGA
The value called pIC50 is obtained by taking minus log10 of the concentration in mol/L.

Asked: Report pIC50 for "CC(C)(CO)c1cccc(CN[C@H]2CS(=O)(=O)C[C@@H](Cc3cc(F)c(N)c(OC(C(F)(F)F)C(F)(F)F)c3)[C@@H]2O)c1"
Given back: 6.10

Asked: Identify pIC50 associated with the molecule C[C@@H]1CN(c2ccc(S(C)(=O)=O)cc2)CCN1c1cccc(C(=O)NC2C3CC4CC2CC(O)(C4)C3)n1 (stereo partly drawn)
Given back: 6.01

Asked: Retrieve pIC50 measured for "Cc1ccc(F)cc1Cn1c(N2CCC[C@@](C)(N)C2)cc2ncn(C)c(=O)c21.Cl" and print it.
Given back: 4.92

Asked: Note pIC50 for the molecule shown: "Cc1cc2c(F)c(Oc3ncnn4cc(OCCCN5CCCCC5)c(C)c34)ccc2[nH]1"
Given back: 6.00
